System: Normale Zellen
Assay: Mean IC50 over all normal cell lines
Assay type: cell-based
Settings: read-out: IC50 Normale Zellen (Durchschnitt ± SD)
IC50 values by entry
endpoint: IC50 (µg/mL)

1. CCCCCCCCCCCCCCC(=O)O[Si](OC(=O)CCCCCCCCCCCCCC)(c1ccccc1)c1ccccc1 = 41.3
2. CCCCCCCCCCCCCCCC(=O)O[Si](CC)(CC)OC(=O)CCCCCCCCCCCCCCC = 23.3
3. CCCCCCCCCCCCCCCCC(=O)O[Si](CC)(CC)OC(=O)CCCCCCCCCCCCCCCC = 30.1
4. CCCCCCCCCCCCCCCCCC(=O)O[Si](CC)(CC)OC(=O)CCCCCCCCCCCCCCCCC = 18

* * *

System: Lymphome
Assay: Effect on lymphomas
Numbered stars: 1 amine (or outer) side, 2 acyl side, 3 side chain; on linkers, the order of the positions; unused ones are H or OH. Bridge positions count the residues as written; N and C are the ends. Peptide text beside a SMILES is read from it. I, II: the chains in the order shown. X2 = c1ccc([Si](O[*:1])(O[*:2])c2ccccc2)cc1
endpoint: Wirkung auf Lymphome

1) C[C@H](N)C(=O)N[C@@H](C)C(=O)N[C@@H](C)C(=O)N[C@@H](C)C(=O)N[C@@H](C)C(=O)N[C@@H](C)C(=O)N[C@@H](C)C(=O)O[Si](OC(=O)[C@H](C)NC(=O)[C@H](C)NC(=O)[C@H](C)NC(=O)[C@H](C)NC(=O)[C@H](C)NC(=O)[C@H](C)NC(=O)[C@H](C)N)(c1ccccc1)c1ccccc1 [Diphenyl bis(heptaalanyl)silylester] (I: H-AAAAAAA / II: H-AAAAAAA; linker I:C-II:C via X2) = zeigen eine Wirkung
2) C[C@H](N)C(=O)N[C@@H](C)C(=O)N[C@@H](C)C(=O)N[C@@H](C)C(=O)N[C@@H](C)C(=O)O[Si](OC(=O)[C@H](C)NC(=O)[C@H](C)NC(=O)[C@H](C)NC(=O)[C@H](C)NC(=O)[C@H](C)N)(c1ccccc1)c1ccccc1 = zeigen eine Wirkung

* * *

Test system: A431 Epidermalkarzinom
Experiment: MTT assay / EZ4U test, 4 days
Type: cell-based
Conditions: Homo sapiens, A-431, read-out: IC50 A431
endpoint: IC50 (µg/mL)

1. CCCCCCCCCCCCCCCCC(=O)O[Si](CC)(CC)OC(=O)CCCCCCCCCCCCCCCC [Si1, Di (heptadecanoyloxy) diethylsilan] = 31.8
2. CCCCCCCCCCCCCCCC(=O)O[Si](CC)(CC)OC(=O)CCCCCCCCCCCCCCC [Si11, Di (hexadecanoyloxy) diethylsilan] = 21.9
3. CCCCCCCCCCCCCCC(=O)O[Si](OC(=O)CCCCCCCCCCCCCC)(c1ccccc1)c1ccccc1 [Si5, Di (pentadecanoyloxy) diphenylsilan] = 36.3
4. CCCCCCCCCCCCCCCCCC(=O)O[Si](CC)(CC)OC(=O)CCCCCCCCCCCCCCCCC [Si13, Di (octadecanoyloxy) diethylsilan] = 15.9

* * *

Tested on: T47D (Brustkrebs)
Assay: MTT test, triplicate, two-fold dilutions
Format: cell-based
Conditions: Homo sapiens, T47D; up to 500 µg/ml; read-out: IC50 T47D
Label key: yes means IC50 under 20 µg/mL; no means IC50 of 20 µg/mL or more.

1) CCCCCCCCCCCCCCCCCC(=O)O[Si](OC(=O)CCCCCCCCCCCCCCCCC)(c1ccccc1)c1ccccc1 = yes
2) CCCCCCCCCCCCC(=O)O[Si](OC(=O)CCCCCCCCCCCC)(c1ccccc1)c1ccccc1 = no
3) CCCCCCCCCCC(=O)O[Si](CC)(CC)OC(=O)CCCCCCCCCC = no
4) CCCCCCCCCCCCCCCC(=O)O[Si](C)(C)OC(=O)CCCCCCCCCCCCCCC = yes
5) CCCCCCCCCCCCCC(=O)O[Si](OC(=O)CCCCCCCCCCCCC)(c1ccccc1)c1ccccc1 = yes
6) CCCCCCCCCCC(=O)O[Si](C)(C)OC(=O)CCCCCCCCCC = no

* * *

Tested on: MIAPaCa2 - Pankreaskrebs
Assay: MTT assay / EZ4U test, 4 days
Type: cell-based
Settings: Homo sapiens, MIA PaCa-2, read-out: IC50 MlAPaCa2
IC50 values by entry
endpoint: IC50 (µg/mL)

1. CCCCCCCCCCCCCCCCC(=O)O[Si](CC)(CC)OC(=O)CCCCCCCCCCCCCCCC = 50
2. CCCCCCCCCCCCCCCC(=O)O[Si](CC)(CC)OC(=O)CCCCCCCCCCCCCCC = 82.5
3. CCCCCCCCCCCCCCC(=O)O[Si](OC(=O)CCCCCCCCCCCCCC)(c1ccccc1)c1ccccc1 = 38.5
4. CCCCCCCCCCCCCCCCCC(=O)O[Si](CC)(CC)OC(=O)CCCCCCCCCCCCCCCCC = 110

* * *

Test system: Plattenepihtelkarzinomen oder Plasmozytomen
Assay: Effect against metastasis in rats
Format: in vivo
Conditions: in Ratten
endpoint: Wirkung gegen die Metastasierung von Plattenepihtelkarzinomen oder Plasmozytomen

1) CCCCCCCCCCCCCCCCC(=O)O[Si](C)(C)OC(=O)CCCCCCCCCCCCCCCC [Di(heptadecanoyloxy)dimethylslan] = zeigen eine Wirkung
2) CCCCCCCCCCC(=O)O[Si](CC)(CC)OC(=O)CCCCCCCCCC [Si 4, Di (undecanoyloxy) diethylslan] = zeigen eine Wirkung
3) CCCCCCCCCCCCCCC(=O)O[Si](C)(C)OC(=O)CCCCCCCCCCCCCC [Di(pentadecanoyloxy)dimethylsilan] = zeigen eine Wirkung
4) CCCCCCCCCCC(=O)O[Si](C)(C)OC(=O)CCCCCCCCCC [Si 2, Di (undecanoyloxy) dimethylsilan] = zeigen eine Wirkung
5) CCCCCCCCCCCCC(=O)O[Si](C)(C)OC(=O)CCCCCCCCCCCC [Si 3, Di (tridecanoyloxy) dimethylsilan] = zeigen eine Wirkung
6) CCCCCCCC(=O)O[Si](CC)(CC)OC(=O)CCCCCCC [Di(octanoyloxy)diethylsilan] = zeigen eine Wirkung
7) CCCCCCCCC(=O)O[Si](CC)(CC)OC(=O)CCCCCCCC [Di(nonanoyloxy)diethyisilan] = zeigen eine Wirkung
8) CCCCCCCCCC(=O)O[Si](CC)(CC)OC(=O)CCCCCCCCC [Si 12, Di (decanoyloxy) diethylsilan] = zeigen eine Wirkung

* * *

Test system: Lymphome
Experiment: Effect on lymphomas
Numbered stars: 1 amine (or outer) side, 2 acyl side, 3 side chain; on linkers, the order of the positions; unused ones are H or OH. Bridge positions count the residues as written; N and C are the ends. Peptide text beside a SMILES is read from it. I, II: the chains in the order shown. X2 = c1ccc([Si](O[*:1])(O[*:2])c2ccccc2)cc1
endpoint: Wirkung auf Lymphome

1) C[C@H](N)C(=O)N[C@@H](C)C(=O)N[C@@H](C)C(=O)N[C@@H](C)C(=O)N[C@@H](C)C(=O)N[C@@H](C)C(=O)N[C@@H](C)C(=O)N[C@@H](C)C(=O)O[Si](OC(=O)[C@H](C)NC(=O)[C@H](C)NC(=O)[C@H](C)NC(=O)[C@H](C)NC(=O)[C@H](C)NC(=O)[C@H](C)NC(=O)[C@H](C)NC(=O)[C@H](C)N)(c1ccccc1)c1ccccc1 [Diphenyl bis(octaalanyl)silylester] (I: H-AAAAAAAA / II: H-AAAAAAAA; linker I:C-II:C via X2) = zeigen eine Wirkung
2) C[C@H](N)C(=O)N[C@@H](C)C(=O)N[C@@H](C)C(=O)N[C@@H](C)C(=O)O[Si](OC(=O)[C@H](C)NC(=O)[C@H](C)NC(=O)[C@H](C)NC(=O)[C@H](C)N)(c1ccccc1)c1ccccc1 [Diphenyl bis(tetraalanyl)silylester] = zeigen eine Wirkung
3) C[C@H](N)C(=O)N[C@@H](C)C(=O)N[C@@H](C)C(=O)N[C@@H](C)C(=O)N[C@@H](C)C(=O)N[C@@H](C)C(=O)N[C@@H](C)C(=O)N[C@@H](C)C(=O)N[C@@H](C)C(=O)O[Si](OC(=O)[C@H](C)NC(=O)[C@H](C)NC(=O)[C@H](C)NC(=O)[C@H](C)NC(=O)[C@H](C)NC(=O)[C@H](C)NC(=O)[C@H](C)NC(=O)[C@H](C)NC(=O)[C@H](C)N)(c1ccccc1)c1ccccc1 [Diphenyl bis(nonaalanyl)silylester] (I: H-AAAAAAAAA / II: H-AAAAAAAAA; linker I:C-II:C via X2) = zeigen eine Wirkung

* * *

Test system: Kälber-Aortenendothelzellinie BKEz-7
Assay: tissue or blood
Type: cell-based
Conditions: suspensions, 48 Stunden bei 37°C
pIC50: −log10 of the molar value.
endpoint: pIC50

1) CCCCCCCCCCCCCC(=O)O[Si](C)(C)OC(=O)CCCCCCCCCCCCC [Di(tetradecanoyloxy)dimethylsilan] = 3.96
2) CCCCCCCCCC(=O)O[Si](OC(=O)CCCCCCCCC)(c1ccccc1)c1ccccc1 [Di(decanoyloxy)diphenylsilan] = 4.85
3) CCCCCCCCCCCCCC(=O)O[Si](OC(=O)CCCCCCCCCCCCC)(c1ccccc1)c1ccccc1 [Si15, Di (tetradecanoyloxy) diphenylsilan] = 4.34

Hey, just so you know, these numbers are from patent EP1948196B1.
